Collected COX2 10 minutes pge2 area (counts) Avg. LLE values appear next to each entry.
Molecular target: human recombinant COX2 (hCOX2) (UniProt P35354)
Test: LCMS-based COX2 enzymatic inhibition assay (PGE2 quantification)
Assay type: biochemical
Design: COX2 2 minutes pge2/pge2d4 area ratio Avg; other: 2 minutes; readout pge2/pge2d4 area ratio; average; COX2 2 minutes pge2/pge2d4 area ratio Avg; LLE; average LLE; COX2 2 minutes pge2 area (counts) Avg; readout pge2 area (counts); other: 2 min; "ovine COX2 (oCOX2), human recombinant COX2 (hCOX2)"
Settings: 10 minutes; readout pge2 area (counts); average LLE
From the text: We have adapted a previously reported cyclooxygenase enzymatic assay utilizing LCMS quantification of PGE2 as the product of COX-1 and COX2 catalyzed conversion of arachidonic acid to evaluate the binding properties of newly synthesized ligands [Cao, 2011]. […] Using these enzymatic assays, we have evaluated>200 newly synthesized ligands against COX2 and >20 ligands against COX-1. […]
Answer using only a numeral; do not append any unit.

Q: Which measured COX2 10 minutes pge2 area (counts) Avg. LLE belongs to CS(=O)(=O)c1ccc(-c2cnc3ccn(Cc4cccs4)c3n2)cc1 , tested on human recombinant COX2 (hCOX2) (UniProt P35354)?
Ans: 5.561

Q: Which measured COX2 10 minutes pge2 area (counts) Avg. LLE belongs to CS(=O)(=O)c1ccc(-c2cncc(NCc3cccs3)n2)cc1 , tested on human recombinant COX2 (hCOX2) (UniProt P35354)?
Ans: 6.195

Q: Which measured COX2 10 minutes pge2 area (counts) Avg. LLE belongs to CC(C)COc1cncc(-c2ccc(S(C)(=O)=O)cc2)n1 , tested on human recombinant COX2 (hCOX2) (UniProt P35354)?
Ans: 3.394

Q: Which measured COX2 10 minutes pge2 area (counts) Avg. LLE belongs to CS(=O)(=O)c1ccc(-c2ncc3ncn(Cc4cccs4)c3n2)cc1 , tested on human recombinant COX2 (hCOX2) (UniProt P35354)?
Ans: 3.534

Q: Which measured COX2 10 minutes pge2 area (counts) Avg. LLE belongs to CN(Cc1cccs1)c1cncc(-c2ccc(S(C)(=O)=O)cc2)n1 , tested on human recombinant COX2 (hCOX2) (UniProt P35354)?
Ans: 6.088

Q: Which measured COX2 10 minutes pge2 area (counts) Avg. LLE belongs to CCCCOc1cncc(-c2ccc(S(C)(=O)=O)cc2)n1 , tested on human recombinant COX2 (hCOX2) (UniProt P35354)?
Ans: 4.508

Q: Which measured COX2 10 minutes pge2 area (counts) Avg. LLE belongs to CS(=O)(=O)c1ccc(-c2cncc(NCc3ccccc3)n2)cc1 , tested on human recombinant COX2 (hCOX2) (UniProt P35354)?
Ans: 5.9924

Q: Which measured COX2 10 minutes pge2 area (counts) Avg. LLE belongs to COc1cc(NCc2cccs2)cc(-c2ccc(S(C)(=O)=O)cc2)n1 , tested on human recombinant COX2 (hCOX2) (UniProt P35354)?
Ans: 5.338

Q: Which measured COX2 10 minutes pge2 area (counts) Avg. LLE belongs to CN(C)c1cncc(-c2ccc(S(C)(=O)=O)cc2)n1 , tested on human recombinant COX2 (hCOX2) (UniProt P35354)?
Ans: 4.674

* * *

Collected IC50 values appear next to each entry.
Target: human recombinant COX2 (hCOX2)
Experiment: LCMS-based COX2 enzymatic inhibition assay (PGE2 quantification)
Type: biochemical
Set-up: COX2 2 minutes pge2/pge2d4 area ratio Avg; other: 2 minutes; readout pge2/pge2d4 area ratio; average; COX2 2 minutes pge2/pge2d4 area ratio Avg; LLE; average LLE; COX2 2 minutes pge2 area (counts) Avg; readout pge2 area (counts); other: 2 min; "ovine COX2 (oCOX2), human recombinant COX2 (hCOX2)"
Details: read-out: COX2 2 minutes pge2/pge2d4 area ratio Avg. IC50 (microM); 2 minutes; readout pge2/pge2d4 area ratio; average
Reply numerically in µM, unit not repeated.

Known IC50 results, listed for orientation:
CS(=O)(=O)c1ccc(-c2cnc3cn(Cc4cccs4)nc3c2)cc1 ... 5.2
CS(=O)(=O)c1ccc(-c2cnnc(OCc3cccs3)c2)cc1 ... 5.2

Q: For the compound CS(=O)(=O)c1ccc(-c2cncc(N3CCc4ccccc4C3)n2)cc1 , what IC50 is on record?
Ans: 5.2

These data points were gathered from patent US20220348590A1.
